tested on: SF-268 CNS; assay: NCI-60 one-dose screen, 48 h; details: 10 µM unless noted
The panel holds about 83,000 compounds, 20% with a hit somewhere; the sample as a whole holds those more often. Active and inactive are the calls of the source. The calls were made as follows: active = growth percent below 10; inactive = the rest.
Labels: active, inactive

Molecule	Class
COc1ccc(/C(C)=C(\c2ccc(Cl)cc2)c2ccc(OCCN3CCCCCC3)cc2)cc1	inactive
CN1CC[C@H](c2c(O)cc(O)c3c(=O)cc(-c4ccccc4Cl)oc23)[C@H](O)C1	active
CC[n+]1c(/C=C/C=C2\N(C)c3ccccc3C2(C)C)sc2ccccc21	inactive
Cc1ccc(NC(=O)Nc2ccc(Nc3ncnc4sc5c(c34)CCOC5)cc2)cc1Cl	inactive
CC(C)c1cc(CNc2nc(Nc3cc(C4CC4)[nH]n3)cc(N3CCN(C)CC3)n2)on1	active
C/C(=C(/c1ccc(Cl)cc1)c1ccc(OCCN2CCCCCC2)cc1)c1ccccc1	inactive
C=CC[n+]1c(/C=C2\Sc3ccccc3N2C)sc(-c2ccccc2)c1-c1ccccc1	inactive
O=C1CSC(c2c(F)cccc2Cl)N1NC(=O)C(O)(c1ccccc1)c1ccccc1 (centres undefined)	inactive
Cc1nc(-c2cn3c(n2)-c2ccc(-c4cnn(C(C)(C)C(N)=O)c4)cc2OCC3)n(C(C)C)n1	inactive
